biological target: Large T antigen (Simian virus 40); test: SV40 large T antigen inhibitors, biochemical (AID 1903); conditions: SV40 large T antigen ATPase/helicase inhibition assay; at 20 µM; hits give high values
Among all 310,000 compounds or so, about 1,200 (0.39%) were called active. These entries were drawn from the full list. Results with a measured potency or affinity are listed apart.

[
  {
    "compound": "CCc1cc2c(NCc3ccccc3)nc(C)nc2s1",
    "result.units": "%",
    "inhibition": 17.6
  },
  {
    "compound": "CC1Cc2ccccc2N1CC(=O)Nc1ccc(N2CCOCC2)cc1 (stereo not given)",
    "result.units": "%",
    "inhibition": 27
  },
  {
    "compound": "Cc1ccc(/C=C2\\C(=O)ON=C2c2ccccc2)o1",
    "result.units": "%",
    "inhibition": -2.84
  },
  {
    "compound": "CC(Nc1ccc2c(c1)OCCO2)C(=O)N1c2ccccc2CC1C (stereo not given)",
    "result.units": "%",
    "inhibition": 16.6
  },
  {
    "compound": "O=C(O)c1cccc(NC(=O)c2ccccc2NC(=O)c2ccccc2F)c1",
    "result.units": "%",
    "inhibition": 9
  }
]

---

Listed next: entries and their corresponding inhibition.
target: Large T antigen (Simian virus 40) (UniProt P03070); assay: SV40 large T antigen inhibitors, biochemical (AID 1903); conditions: SV40 large T antigen ATPase/helicase inhibition assay; at 20 µM; hits give high values
Sequence (P03070 whole entry, looked up): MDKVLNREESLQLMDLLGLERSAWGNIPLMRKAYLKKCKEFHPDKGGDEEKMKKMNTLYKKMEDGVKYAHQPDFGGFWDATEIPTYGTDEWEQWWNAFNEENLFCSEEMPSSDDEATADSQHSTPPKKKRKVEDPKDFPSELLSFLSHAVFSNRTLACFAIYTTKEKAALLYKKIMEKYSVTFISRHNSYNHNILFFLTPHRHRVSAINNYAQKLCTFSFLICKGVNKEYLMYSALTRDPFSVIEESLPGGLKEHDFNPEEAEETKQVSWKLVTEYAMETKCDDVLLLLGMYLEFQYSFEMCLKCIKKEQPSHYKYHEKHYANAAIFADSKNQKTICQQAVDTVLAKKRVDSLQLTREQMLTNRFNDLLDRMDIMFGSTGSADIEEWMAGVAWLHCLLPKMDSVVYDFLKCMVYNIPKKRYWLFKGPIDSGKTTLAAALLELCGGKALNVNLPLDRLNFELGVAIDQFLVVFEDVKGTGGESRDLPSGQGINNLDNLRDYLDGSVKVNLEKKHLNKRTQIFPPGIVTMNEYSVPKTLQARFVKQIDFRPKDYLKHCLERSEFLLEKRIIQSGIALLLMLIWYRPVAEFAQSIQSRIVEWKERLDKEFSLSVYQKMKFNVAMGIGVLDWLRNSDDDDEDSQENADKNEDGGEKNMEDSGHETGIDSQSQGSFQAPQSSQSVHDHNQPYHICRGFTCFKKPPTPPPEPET
Out of some 310,000 compounds screened, about 1,200 (0.39%) were called active. Only a sample is shown. Results with a measured potency or affinity are listed apart.

[
  {
    "compound": "O=C(/C=C/c1ccccc1)N1CCN(c2ccc([N+](=O)[O-])c(N3CCOCC3)c2)CC1",
    "system.tested": "Large T antigen (Simian virus 40) (UniProt P03070)",
    "inhibition": "9.06% (inactive)"
  },
  {
    "compound": "CN(C)/C=C/C(=O)c1ccc(Cl)c([N+](=O)[O-])c1",
    "system.tested": "Large T antigen (Simian virus 40) (UniProt P03070)",
    "inhibition": "11.3% (inactive)"
  },
  {
    "compound": "CN(C)c1ccc(CNc2ccc3c(c2)ncn3C(C)(C)C)cc1",
    "system.tested": "Large T antigen (Simian virus 40) (UniProt P03070)",
    "inhibition": "37.9% (inactive)"
  },
  {
    "compound": "CCn1cnc2cc(NCc3ccc(C)cc3)ccc21",
    "system.tested": "Large T antigen (Simian virus 40) (UniProt P03070)",
    "inhibition": "35.2% (inactive)"
  },
  {
    "compound": "Cc1ccc(N=Nc2ccc(N)cc2C)c(S(N)(=O)=O)c1",
    "system.tested": "Large T antigen (Simian virus 40) (UniProt P03070)",
    "inhibition": "10.1% (inactive)"
  },
  {
    "compound": "c1ccc(-c2csc(NC3=NCCCCC3)n2)cc1",
    "system.tested": "Large T antigen (Simian virus 40) (UniProt P03070)",
    "inhibition": "-1.35% (inactive)"
  },
  {
    "compound": "CCN(CC)c1ccc(CNc2ccc3c(c2)ncn3CC)cc1",
    "system.tested": "Large T antigen (Simian virus 40) (UniProt P03070)",
    "inhibition": "32.3% (inactive)"
  },
  {
    "compound": "CC(CCc1ccc(O)cc1)NC1C2CC3CC(C2)CC1C3 (stereo unspecified)",
    "system.tested": "Large T antigen (Simian virus 40) (UniProt P03070)",
    "inhibition": "2.61% (inactive)"
  },
  {
    "compound": "Cc1cccc(C)c1N=Nc1c(C)cc(O)cc1C",
    "system.tested": "Large T antigen (Simian virus 40) (UniProt P03070)",
    "inhibition": "12.6% (inactive)"
  },
  {
    "compound": "Cc1cc(C)cc(OCC(=O)OCC(=O)Nc2c(C)n(C)n(-c3ccccc3)c2=O)c1",
    "system.tested": "Large T antigen (Simian virus 40) (UniProt P03070)",
    "inhibition": "15.2% (inactive)"
  },
  {
    "compound": "CCN(C(=O)COC(=O)c1cncc(Br)c1)C1CCS(=O)(=O)C1 (stereo unspecified)",
    "system.tested": "Large T antigen (Simian virus 40) (UniProt P03070)",
    "inhibition": "2.6% (inactive)"
  },
  {
    "compound": "CC(=O)Nc1sc(NC(=O)c2ccccc2)nc1-c1cccs1",
    "system.tested": "Large T antigen (Simian virus 40) (UniProt P03070)",
    "inhibition": "6.41% (inactive)"
  },
  {
    "compound": "CCCCCn1c(=O)c2ccccc2n2c(CCl)nnc12",
    "system.tested": "Large T antigen (Simian virus 40) (UniProt P03070)",
    "inhibition": "15.8% (inactive)"
  },
  {
    "compound": "O=S1c2ccccc2Nc2ccccc21",
    "system.tested": "Large T antigen (Simian virus 40) (UniProt P03070)",
    "inhibition": "8.27% (inactive)"
  },
  {
    "compound": "CCC(=O)c1ccc(OCC(=O)OCC(=O)Nc2c(C)n(C)n(-c3ccccc3)c2=O)cc1",
    "system.tested": "Large T antigen (Simian virus 40) (UniProt P03070)",
    "inhibition": "12.3% (inactive)"
  },
  {
    "compound": "O=C(O)c1cc(-c2cccs2)nc2ccc(Br)cc12",
    "system.tested": "Large T antigen (Simian virus 40) (UniProt P03070)",
    "inhibition": "15.7% (inactive)"
  },
  {
    "compound": "Oc1ccc(Cl)cc1N=Nc1ccccc1",
    "system.tested": "Large T antigen (Simian virus 40) (UniProt P03070)",
    "inhibition": "8.08% (inactive)"
  },
  {
    "compound": "CCN1CCN(C(=O)c2ccc(OCC(=O)Nc3ccc(F)cc3)c(OC)c2)CC1",
    "system.tested": "Large T antigen (Simian virus 40) (UniProt P03070)",
    "inhibition": "4.11% (inactive)"
  },
  {
    "compound": "COc1ccc2cc(S(=O)(=O)n3cnc(C)c3)ccc2c1",
    "system.tested": "Large T antigen (Simian virus 40) (UniProt P03070)",
    "inhibition": "3.48% (inactive)"
  },
  {
    "compound": "COc1cccc(-n2c(SCC(N)=O)nc3ccccc3c2=O)c1",
    "system.tested": "Large T antigen (Simian virus 40) (UniProt P03070)",
    "inhibition": "4.09% (inactive)"
  },
  {
    "compound": "COC1=C(Nc2ccccc2)C(=O)c2ccccc2C1=O",
    "system.tested": "Large T antigen (Simian virus 40) (UniProt P03070)",
    "inhibition": "-28.6% (inactive)"
  },
  {
    "compound": "CC12CCC(c3n[nH]c(=S)nc31)C2(C)C (stereo unspecified)",
    "system.tested": "Large T antigen (Simian virus 40) (UniProt P03070)",
    "inhibition": "24.4% (inactive)"
  },
  {
    "compound": "COc1ccccc1N(C)S(=O)(=O)c1ccc(C(=O)OCC(=O)NCC(F)(F)F)cc1",
    "system.tested": "Large T antigen (Simian virus 40) (UniProt P03070)",
    "inhibition": "21.8% (inactive)"
  },
  {
    "compound": "CN(C)CCCOc1ccc2c(c1)Sc1ccccc1CC2=O",
    "system.tested": "Large T antigen (Simian virus 40) (UniProt P03070)",
    "inhibition": "-4.85% (inactive)"
  },
  {
    "compound": "O=C(Nc1ccccc1Cl)N1CCSc2ccccc21",
    "system.tested": "Large T antigen (Simian virus 40) (UniProt P03070)",
    "inhibition": "5.32% (inactive)"
  },
  {
    "compound": "CN(C)Cc1ccccc1Sc1ccc(Br)cc1",
    "system.tested": "Large T antigen (Simian virus 40) (UniProt P03070)",
    "inhibition": "9.88% (inactive)"
  },
  {
    "compound": "CS(=O)(=O)c1ccc(Cl)c(NC(=O)C2CCCN(C(=O)c3ccc(Cl)cc3)C2)c1 (stereo unspecified)",
    "system.tested": "Large T antigen (Simian virus 40) (UniProt P03070)",
    "inhibition": "6.85% (inactive)"
  },
  {
    "compound": "CC(C)CSc1nc2ccccc2[nH]1",
    "system.tested": "Large T antigen (Simian virus 40) (UniProt P03070)",
    "inhibition": "4.9% (inactive)"
  },
  {
    "compound": "CCCOc1ccc(-c2nc(C#N)c(NCC3CCCO3)o2)cc1 (stereo unspecified)",
    "system.tested": "Large T antigen (Simian virus 40) (UniProt P03070)",
    "inhibition": "3.05% (inactive)"
  },
  {
    "compound": "Nc1cc(S(=O)(=O)O)cc([N+](=O)[O-])c1O",
    "system.tested": "Large T antigen (Simian virus 40) (UniProt P03070)",
    "inhibition": "23% (inactive)"
  },
  {
    "compound": "COC(=O)/C(C#N)=C1/C=Cc2ccccc2N1",
    "system.tested": "Large T antigen (Simian virus 40) (UniProt P03070)",
    "inhibition": "9.95% (inactive)"
  }
]
